B1: BTBD1 (parent)
chain: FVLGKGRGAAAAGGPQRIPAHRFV

Variants of: B1
Assay: protein stability index of a GFP-peptide fusion (GPS, HEK-293T) (PSI 1-6); higher = more stable;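 further: lentivirally expressed fusions sorted by FACS into six bins by GFP to DsRed ratio, PSI derived from sequencing read proportions per bin multiplied by bin number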
Settings: c terminus: a fixed tail appended

>  <variant designation>
R17D

>  <protein stability index>
2.54

$$$$
>  <variant designation>
H21T

>  <protein stability index>
2.72

$$$$
>  <variant designation>
A11Y

>  <protein stability index>
1.63

$$$$
>  <variant designation>
A12M

>  <protein stability index>
1.52

$$$$
>  <variant designation>
G14S

>  <protein stability index>
2.64

$$$$
>  <variant designation>
G14V

>  <protein stability index>
1.9

$$$$
>  <variant designation>
G14Y

>  <protein stability index>
1.07

$$$$
>  <variant designation>
G8A

>  <protein stability index>
1.33

$$$$
>  <variant designation>
P19L

>  <protein stability index>
1.5

$$$$

Values from the supplement of paper PMC10567573
